Each entry below carries its recorded TGI.
Test system: IGROV1 ovarian
Assay: NCI tumour cell line growth inhibition, 48 h

(Q) Lab note: need TGI for O=C1OC(c2ccc(Cl)cc2)=N/C1=C\c1ccccc1 on IGROV1 ovarian, anyone have it?
(A) > 100 µM

***
(Q) Lab note: need TGI for COc1ccc2nc3cc([N+](=O)[O-])ccc3c(Nc3ccc(S(=O)(=O)Nc4ncccn4)cc3)c2c1 on IGROV1 ovarian, anyone have it?
(A) > 100 µM

(Q) Lab note: need TGI for CCCCCCCC(=O)OC[C@H](C[As](=O)(O)O)OC(=O)CCCCCCC on IGROV1 ovarian, anyone have it?
(A) 14.4 µM

(Q) Lab note: need TGI for COc1ccc(C2=NN(C(C)=O)C(c3ccc(Oc4ccnc5cc(Cl)ccc45)c(OC)c3)C2)cc1 (configuration not stated) on IGROV1 ovarian, anyone have it?
(A) > 100 µM

(Q) Lab note: need TGI for CN/N=C(\C)C(CN1CCCCC1)C(C1=C(O)c2ccccc2OC1)c1ccccc1 (configuration not stated) on IGROV1 ovarian, anyone have it?
(A) > 100 µM

(Q) Lab note: need TGI for C1=CCC[C@@H]2CN3CCCC/C=C\CCCC[C@H]4C[C@H](CN(CCCCCCCC1)C4)[C@H]2CC3 on IGROV1 ovarian, anyone have it?
(A) 18 µM

(Q) Lab note: need TGI for COc1cc2c(/C=C3/C(=O)Nc4ccc(O)cc43)c(Cl)n(Cc3cc(OC)c(OC)c(OC)c3)c2cc1C on IGROV1 ovarian, anyone have it?
(A) 5.75 µM

(Q) Lab note: need TGI for CCOC(=O)[C@@]1(C(C)=O)CC(C)=C(C)C[S@]1=O on IGROV1 ovarian, anyone have it?
(A) > 100 µM

(Q) Lab note: need TGI for CC(=O)OCC1=CC2OC(=O)C3=COC(OC4OC(CO)C(O)C(O)C4O)C1C32 (configuration not stated) on IGROV1 ovarian, anyone have it?
(A) > 100 µM

(Q) Lab note: need TGI for NNc1nc2ccccc2o1 on IGROV1 ovarian, anyone have it?
(A) > 100 µM

(Q) Lab note: need TGI for COc1ccc(-c2oc3c(OC)c(OC)c(OC)c(O)c3c(=O)c2OC)cc1O on IGROV1 ovarian, anyone have it?
(A) 52.1 µM

(Q) Lab note: need TGI for CO/N=C(/C(=O)Nc1c[n+](CC(=O)[O-])cs1)c1csc(N)n1 on IGROV1 ovarian, anyone have it?
(A) > 100 µM

(Q) Lab note: need TGI for C=CCCCN1CCCCC1=S on IGROV1 ovarian, anyone have it?
(A) > 100 µM

(Q) Lab note: need TGI for COc1ccc2c(=O)c3c([nH]c2c1)OCC3=O on IGROV1 ovarian, anyone have it?
(A) > 100 µM

(Q) Lab note: need TGI for [N-]=[N+]=Nc1c(-c2ccccc2)c(=O)n(-c2ccccc2)c2ccccc12 on IGROV1 ovarian, anyone have it?
(A) > 100 µM

(Q) Lab note: need TGI for CCc1ccc(Cc2ccc(CC)c(NC(=O)C(=O)C3NC(=S)NC3=O)c2CC)c(CC)c1NC(=O)C(=O)C1NC(=S)NC1=O (configuration not stated) on IGROV1 ovarian, anyone have it?
(A) > 100 µM

----------
Tested on: NCI-H23 lung
Assay: NCI tumour cell line growth inhibition, 48 h; in the data active means GI50 below about 0.43 µM; inactive means the rest
Pick one: yes for active, no for inactive

Take a look at these entries with their results.
(Q) Test call, this compound: CCN1C(=O)N(CC)C2C1NN=c1s/c(=C\c3ccc(C(F)(F)F)cc3)c(=O)n12 (stereo not given)
(A) no

(Q) Test call, this compound: COc1cc(NS(C)(=O)=O)ccc1Cc1c2ccccc2nc2ccccc12
(A) yes

(Q) Test call, this compound: COc1ccc2nc3c(cc2c1)C(=O)CC(c1ccccc1)C3 (stereo not given)
(A) no

(Q) Test call, this compound: C#CCOC(=O)/C=C/C(=O)Oc1ccc2c(C)cc(=O)oc2c1
(A) no

(Q) Test call, this compound: CC(=O)Nc1ccc(OC(C)=O)cc1
(A) yes

***
(Q) Test call, this compound: O=C1c2ccccc2C(=O)c2c1oc1c2c(=O)[nH]c2ccc(Cl)cc21
(A) yes

(Q) Test call, this compound: O=C(Nc1ccccc1Cl)c1ccc(NC2=C(Cl)C(=O)N(C3CCCCC3)C2=O)cc1
(A) no

(Q) Test call, this compound: CN[C@@H](Cc1cccc2ccccc12)C(=O)N[C@@H](CC(C)C)B(O)O
(A) yes

(Q) Test call, this compound: CC(=O)[CH-]C(C)=O.CC(=O)[CH-]C(C)=O.[Cl-].[O]=[V]
(A) no

(Q) Test call, this compound: CCc1cccc(NC(=O)Nc2ccc(Oc3ccc4nc(NC(=O)OC)[nH]c4c3)cc2)c1
(A) no

----------
System: HS 578T breast
Assay: NCI tumour cell line growth inhibition, 48 h
Each entry below carries its recorded TGI.
// units = µM; emit number, no label

(Q) Would you kindly share the measured TGI for C1=CCC[C@@H]2CN3CCCC/C=C\CCCC[C@H]4C[C@H](CN(CCCCCCCC1)C4)[C@H]2CC3 ?
(A) 20.2

Alright, here's another compound for you.
(Q) Would you kindly share the measured TGI for O=C1c2ccccc2C(=O)c2c1oc1c2c(=O)[nH]c2ccc(Cl)cc21 ?
(A) 1.37

----------
Tested on: MCF7 breast
Experiment: NCI tumour cell line growth inhibition, 48 h
Value Type: TGI

Here is how some compounds turned out for TGI.
(Q) Lab note: need TGI for O=C1c2ccccc2C(=O)c2c1oc1c2c(=O)[nH]c2ccc(Cl)cc21 on MCF7 breast, anyone have it?
(A) 1.05 µM

(Q) Lab note: need TGI for Cc1nc2ccccc2c(/C=C/c2ccccc2)c1C(=O)/C=C/c1ccc(C(F)(F)F)cc1 on MCF7 breast, anyone have it?
(A) 2.66 µM

(Q) Lab note: need TGI for CCc1[nH]nc(C(N)=O)c1N=NN(C)C on MCF7 breast, anyone have it?
(A) > 100 µM

(Q) Lab note: need TGI for CN(/N=C/c1ccccc1O)c1ccc2ccccc2n1 on MCF7 breast, anyone have it?
(A) 30.9 µM

(Q) Lab note: need TGI for Cc1nc(C)c(N2CCN(S(N)(=O)=O)CC2)c(=O)[nH]1 on MCF7 breast, anyone have it?
(A) > 100 µM

(Q) Lab note: need TGI for CC[C@H]1CCC/C=C/[C@@H]2C[C@H](O)C[C@H]2[C@H](O)/C=C/C(=O)O1 on MCF7 breast, anyone have it?
(A) 0.102 µM

(Q) Lab note: need TGI for CCOC(=O)C(NC(=O)c1cccc(Cl)c1)(Nc1ccc(S(=O)(=O)Nc2cc(C)nc(C)n2)cc1)C(F)(F)F (configuration not stated) on MCF7 breast, anyone have it?
(A) > 100 µM

(Q) Lab note: need TGI for COc1ccc(C2CC(c3ccc(OC)cc3O)=NN2c2ccc(S(N)(=O)=O)cc2)cc1 (configuration not stated) on MCF7 breast, anyone have it?
(A) > 100 µM

(Q) Lab note: need TGI for CCCS(=O)(=O)Nc1cccc(Nc2ncnc3cc(NC(=O)CCl)ccc23)c1Cl on MCF7 breast, anyone have it?
(A) 5.92 µM

(Q) Lab note: need TGI for Cc1nn(C(=O)Cc2ccccc2)c2c1C(c1ccc([N+](=O)[O-])cc1)SC(N)=N2 (configuration not stated) on MCF7 breast, anyone have it?
(A) > 100 µM

***
(Q) Lab note: need TGI for COc1ccc(NC(=O)C(C#N)=C(SC)SC)cc1 on MCF7 breast, anyone have it?
(A) > 100 µM

(Q) Lab note: need TGI for CN(/N=C/c1ccc(Cl)c(Cl)c1)C1=NCCCCN1 on MCF7 breast, anyone have it?
(A) 54.3 µM

(Q) Lab note: need TGI for c1ccc(SCCc2ccncc2)cc1 on MCF7 breast, anyone have it?
(A) > 100 µM

(Q) Lab note: need TGI for COC(=O)[C@@H]1C[C@]2(Br)c3ccccc3N(S(=O)(=O)c3ccccc3)[C@@H]2N1C(=O)OC on MCF7 breast, anyone have it?
(A) > 100 µM

(Q) Lab note: need TGI for Cc1ccc(-c2nc(/C=N/Nc3cc(C)nc4ccc(Br)cc34)c(C)o2)cc1 on MCF7 breast, anyone have it?
(A) 3.99 µM

(Q) Lab note: need TGI for S=C1SCN(Cc2ccccc2)CN1Cc1ccccc1 on MCF7 breast, anyone have it?
(A) 15.1 µM

(Q) Lab note: need TGI for CCOC(=O)C(NC(=O)c1ccccc1)(c1ccc(S(=O)(=O)Nc2onc(C)c2C)cc1)C(F)(F)F (configuration not stated) on MCF7 breast, anyone have it?
(A) > 100 µM

(Q) Lab note: need TGI for O=C1CCCCN1 on MCF7 breast, anyone have it?
(A) > 1120 µM

(Q) Lab note: need TGI for COc1ccc2c(=O)c3c([nH]c2c1)OCC3=O on MCF7 breast, anyone have it?
(A) > 100 µM

(Q) Lab note: need TGI for Cc1cn(C2CC(N=[N+]=[N-])C(CO)O2)c(=O)n(CCCCBr)c1=O (configuration not stated) on MCF7 breast, anyone have it?
(A) > 100 µM

(Q) Lab note: need TGI for CC(C)=Cc1cccc2[nH]c(O)c(N=Nc3ccc(S(N)(=O)=O)cc3)c12 on MCF7 breast, anyone have it?
(A) > 25 µM

(Q) Lab note: need TGI for CCOC(=O)Nc1ccc2c(c1)C(=O)N(CC)c1ccccc1O2 on MCF7 breast, anyone have it?
(A) > 100 µM
